Reference source: ChEMBL document CHEMBL1151741

Experiment: Antiproliferative activity against human HCT 116 cells after 72 hrs by MTT assay
Type: functional, cell-based
Conditions: HCT-116, 72 h
property_measured: pIC50
Numbers only, as −log10 of the molar value.

Observe how each entry below is paired with its result.
CN(C)/[N+]([O-])=N/Oc1cc(O/N=[N+](\[O-])N2CCCC2CO)c([N+](=O)[O-])cc1[N+](=O)[O-] (centres undefined) ... 5.80
CNc1ccc(C(=O)Oc2cc(O/N=[N+](\[O-])N(C)C)c([N+](=O)[O-])cc2[N+](=O)[O-])cc1 ... 5.26
CCOC(=O)N1CCN(/[N+]([O-])=N/Oc2cc(O/N=[N+](\[O-])N3CCN(C(=O)N(CC)CC)CC3)c([N+](=O)[O-])cc2[N+](=O)[O-])CC1 ... 5.82

Lab note: measured pIC50 of CCOC(=O)N1CCN(/[N+]([O-])=N/Oc2cc(O/N=[N+](\[O-])N(C)C)c([N+](=O)[O-])cc2[N+](=O)[O-])CC1 was 5.62

====

Test system: PC-3
Assay: Antiproliferative activity against human PC-3 cells after 72 hrs by MTT assay
Assay type: functional, cell-based
Settings: PC-3, 72 h
property_measured: TGI (µM)
Give bare numbers, in µM.

For orientation, consider the following solved cases.
CCOC(=O)N1CCN(/[N+]([O-])=N/Oc2cc(O/N=[N+](\[O-])N3CCN(C(=O)N(CC)CC)CC3)c([N+](=O)[O-])cc2[N+](=O)[O-])CC1 ... 8
CCOC(=O)N1CCN(/[N+]([O-])=N/Oc2cc(O/N=[N+](\[O-])N(C)C)c([N+](=O)[O-])cc2[N+](=O)[O-])CC1 ... 7

Attention now turns to another entry.
The recorded TGI for entry CN(C)/[N+]([O-])=N/Oc1cc(O/N=[N+](\[O-])N2CCCC2CO)c([N+](=O)[O-])cc1[N+](=O)[O-] (centres undefined) equals 7
